The measurements presented in this section are drawn from the RNAGym collection of RNA variant scans (doi:10.1038/s41586-018-0170-7).

B1: tRNA (parent)
chain: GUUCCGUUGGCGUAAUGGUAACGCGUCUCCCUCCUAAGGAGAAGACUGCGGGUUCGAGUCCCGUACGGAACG

Variants of: B1
Experiment: yeast fitness, log relative to wild type (ln ratio); higher = fitter; tRNA-Arg(CCU), competitive growth, 37 C, 1 M NaCl
Rule: yeast fitness (ln) under -0.09 gives FALSE, otherwise TRUE.

Solved cases (4 shown):
| mutation_notation | cat |
| --- | --- |
| U2G A43C C46U C66U A70G C71U | FALSE |
| U2G G6A C46U C66U A69G A70U C71U | FALSE |
| G1A U2G G6U C46U C66A A70G C71U | FALSE |
| C27U A69G A70G | TRUE |

Does G1A U2G G6A A70U have a reported yeast fitness (ln) of at least -0.09?
TRUE

Please do the same for G1A U2G G6A A70G as well.
FALSE

Please do the same for G1A U2G G6A A43C A69G C71U as well.
FALSE

Please do the same for U2G G6A A43C C46U C66U A70G C71U as well.
FALSE

Please do the same for G1A C27U A43C C46U C66U A70G as well.
FALSE
